Below is a list of entries, each paired with its recorded self-splicing fitness (ln) value.
- experiment: self-splicing fitness, log relative to wild type (ln ratio); higher = more splicing; Tetrahymena group I intron in knt gene, E. coli kanamycin selection, DiMSum; sequences stand for … in CUCUCU…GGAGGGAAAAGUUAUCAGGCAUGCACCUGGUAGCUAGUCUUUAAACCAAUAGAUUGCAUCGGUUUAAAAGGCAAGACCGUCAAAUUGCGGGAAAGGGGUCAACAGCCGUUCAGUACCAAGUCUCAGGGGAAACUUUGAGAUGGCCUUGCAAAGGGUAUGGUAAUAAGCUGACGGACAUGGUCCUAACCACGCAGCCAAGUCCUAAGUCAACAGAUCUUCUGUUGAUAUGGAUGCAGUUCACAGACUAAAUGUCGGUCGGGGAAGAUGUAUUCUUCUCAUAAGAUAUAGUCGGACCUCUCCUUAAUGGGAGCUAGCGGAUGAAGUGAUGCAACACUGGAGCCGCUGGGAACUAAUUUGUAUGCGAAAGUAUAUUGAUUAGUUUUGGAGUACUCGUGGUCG;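 further: selection with 25 µg/mL kanamycin versus none on LB agar overnight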
- study.conditions: 30 °C

sequence.content: CAUAAGCAAUAUUACGAUGG
measured.endpoint: self-splicing fitness (ln)
measurement: 0.0378
//
sequence.content: UUAAAGCAAUAUUACGAUUG
measured.endpoint: self-splicing fitness (ln)
measurement: -2.03
//
sequence.content: ACCUAGCAAUAUUACGCAGU
measured.endpoint: self-splicing fitness (ln)
measurement: -2.58
//
sequence.content: UUGGAGCAAUAUUACGUGUC
measured.endpoint: self-splicing fitness (ln)
measurement: -3.26
//
sequence.content: GAACAGCAAUAUUACGUCAC
measured.endpoint: self-splicing fitness (ln)
measurement: -3.44
//
sequence.content: GGUCAGCAAUAUUACGGAUA
measured.endpoint: self-splicing fitness (ln)
measurement: -0.579

Problem: Output self-splicing fitness (ln) of GUUAAGCAAUAUUACGCGCG
Result: -0.983

Problem: Output self-splicing fitness (ln) of CGGGAGCAAUAUUACGUAAC
Result: -1.35

Problem: Output self-splicing fitness (ln) of GCCAAGCAAUAUUACGUAUG
Result: -2.94

====

- experiment: self-splicing fitness, log relative to wild type (ln ratio); higher = more splicing; Tetrahymena group I intron in knt gene, E. coli kanamycin selection, DiMSum; sequences stand for … in CUCUCU…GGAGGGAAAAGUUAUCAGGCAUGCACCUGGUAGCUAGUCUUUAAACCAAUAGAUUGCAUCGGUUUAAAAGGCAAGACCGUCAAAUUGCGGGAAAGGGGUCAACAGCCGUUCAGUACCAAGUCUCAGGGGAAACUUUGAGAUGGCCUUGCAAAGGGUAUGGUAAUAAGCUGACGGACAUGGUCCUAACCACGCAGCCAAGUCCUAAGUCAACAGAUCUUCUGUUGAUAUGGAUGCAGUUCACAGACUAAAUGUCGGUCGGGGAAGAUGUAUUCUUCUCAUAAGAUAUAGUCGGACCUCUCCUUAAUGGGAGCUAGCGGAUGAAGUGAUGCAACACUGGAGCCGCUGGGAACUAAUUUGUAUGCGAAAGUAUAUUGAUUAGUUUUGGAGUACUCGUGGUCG
- study.conditions: 30 °C
Please use true (1) whenever self-splicing fitness (ln) is not below -2, and false (0) whenever it is.

Solved entries:
sequence.content: UUUCAGCAAUAUUACGGGGA
category: false (0)

sequence.content: AAACAGCAAUAUUACGGUCA
category: true (1)

sequence.content: CGGUAGCAAUAUUACGCCAC
category: false (0)

sequence.content: UGGCAGCAAUAUUACGGGCG
category: true (1)

sequence.content: AACGAGCAAUAUUACGCUGC
category: false (0)

Problem: Assess whether reported self-splicing fitness (ln) for AGUGAGCAAUAUUACGCCUA sits at -2 or higher.
Result: false (0)

Problem: Assess whether reported self-splicing fitness (ln) for UCCAAGCAAUAUUACGUGGC sits at -2 or higher.
Result: false (0)

Problem: Assess whether reported self-splicing fitness (ln) for GGCAAGCAAUAUUACGCGAA sits at -2 or higher.
Result: true (1)
